assay: Apparent permeability from apical to basolateral side in low-efflux MDCK cells expressing low levels of endogenous P-glycoprotein at […] incubated for 2 hrs by LC-MS/MS method; format: ADME, cell-based, Canis lupus familiaris; conditions: dog
Give measured Papp A→B at 2 h for each item. Keep answers brief.
Unit ×10⁻⁶ cm/s implied. Number only.

Prompt: Specify measured Papp A→B at 2 h for CC(C)NCC(O)COc1cccc2ccccc12 (centres undefined) .
Completion: 7

Prompt: Specify measured Papp A→B at 2 h for C/C1=C\[C@@H](CC(C)C)NC(=O)[C@@H]2CCCN2C(=O)[C@H](CC(C)C)N(C)C(=O)C[C@@H](O)[C@@H](CC(C)C)NC(=O)[C@H](CC(C)C)N(C)C(=O)[C@H](CC(C)C)N(C)C1=O .
Completion: 9.5

Prompt: Specify measured Papp A→B at 2 h for C/C1=C\[C@@H](CC(C)C)NC(=O)[C@@H]2CCCN2C(=O)[C@@H](CC(C)C)N(C)C(=O)C[C@H](O)[C@H](CC(C)C)NC(=O)[C@@H](CC(C)C)N(C)C(=O)[C@@H](CC(C)C)N(C)C1=O .
Completion: 11.2

Prompt: Specify measured Papp A→B at 2 h for C/C1=C\[C@H](CC(C)C)NC(=O)[C@@H]2CCCN2C(=O)[C@@H](CC(C)C)N(C)C(=O)C[C@H](O)[C@H](CC(C)C)NC(=O)[C@@H](CC(C)C)N(C)C(=O)[C@@H](CC(C)C)N(C)C1=O .
Completion: 11.2
